Target: F508delCFTR cell surface expression in CFBE41o-F508delCFTR-HRP cells (Homo sapiens, UniProt P13569, DEL508-508)
Construct: fused on or other part: Horseradish peroxidase (HRP) reporter inserted in the fourth exofacial (extracellular) loop of CFTR; expression is doxycycline-inducible
Sequence (P13569 with tags, fused parts or gaps DEL508-508 limits assumed): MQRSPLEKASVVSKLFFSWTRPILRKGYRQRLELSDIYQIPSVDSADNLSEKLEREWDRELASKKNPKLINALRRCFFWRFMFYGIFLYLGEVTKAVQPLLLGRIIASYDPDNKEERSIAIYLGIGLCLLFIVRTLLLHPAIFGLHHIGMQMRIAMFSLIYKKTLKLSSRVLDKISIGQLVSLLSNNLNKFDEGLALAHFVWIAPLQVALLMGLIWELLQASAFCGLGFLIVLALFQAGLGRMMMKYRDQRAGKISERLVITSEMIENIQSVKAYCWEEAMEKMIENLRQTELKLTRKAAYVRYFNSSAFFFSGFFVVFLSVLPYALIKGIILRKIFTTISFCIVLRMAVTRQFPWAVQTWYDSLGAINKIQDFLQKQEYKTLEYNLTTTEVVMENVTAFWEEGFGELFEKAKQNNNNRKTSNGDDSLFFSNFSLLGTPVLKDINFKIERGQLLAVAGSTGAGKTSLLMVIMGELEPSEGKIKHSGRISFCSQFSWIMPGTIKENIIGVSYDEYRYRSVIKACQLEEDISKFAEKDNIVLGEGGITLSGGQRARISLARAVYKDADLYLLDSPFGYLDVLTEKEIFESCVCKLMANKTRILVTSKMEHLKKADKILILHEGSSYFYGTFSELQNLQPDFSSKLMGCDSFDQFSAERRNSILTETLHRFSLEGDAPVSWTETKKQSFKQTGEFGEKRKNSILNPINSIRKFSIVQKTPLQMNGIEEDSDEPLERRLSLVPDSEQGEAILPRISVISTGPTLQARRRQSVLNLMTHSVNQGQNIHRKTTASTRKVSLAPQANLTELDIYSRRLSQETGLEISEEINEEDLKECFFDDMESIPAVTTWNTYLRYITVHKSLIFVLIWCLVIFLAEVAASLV
Sequence (P13569 919-1480 limits assumed, stated change not applied): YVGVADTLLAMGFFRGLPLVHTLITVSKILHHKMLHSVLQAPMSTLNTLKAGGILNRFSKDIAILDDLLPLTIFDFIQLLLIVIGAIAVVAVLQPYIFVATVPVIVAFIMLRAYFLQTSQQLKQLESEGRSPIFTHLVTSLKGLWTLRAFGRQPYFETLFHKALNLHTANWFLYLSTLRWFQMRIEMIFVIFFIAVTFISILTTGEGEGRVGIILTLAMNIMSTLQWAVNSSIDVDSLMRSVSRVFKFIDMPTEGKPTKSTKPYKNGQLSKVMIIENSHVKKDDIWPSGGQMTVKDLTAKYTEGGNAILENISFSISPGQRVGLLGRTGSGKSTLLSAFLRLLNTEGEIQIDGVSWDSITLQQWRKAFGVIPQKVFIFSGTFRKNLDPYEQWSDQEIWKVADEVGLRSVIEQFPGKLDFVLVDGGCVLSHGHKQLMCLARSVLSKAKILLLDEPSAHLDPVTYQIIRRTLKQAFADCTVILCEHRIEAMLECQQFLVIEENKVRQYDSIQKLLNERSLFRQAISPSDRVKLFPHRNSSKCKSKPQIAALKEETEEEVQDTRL
Assay: Cell Surface Expression-Horse Radish Peroxidase (CSE-HRP) Assay
Details: CFBE41o-F508delCFTR-HRP cells, 18-24 hours at 33° C., 8-point curve, highest concentration 20 μM
The entries below come with measured EC50 values attached.

Here is how some compounds turned out for EC50.
COMPOUND: CC1(C(=O)O)CN(c2cccc(NC(=O)[C@@]3(C)COc4cc5c(cc43)OC(F)(F)O5)n2)C1 [Example 96]
RESULT_TYPE: EC50
OBS_VALUE: 1310 nM
--
COMPOUND: CCOC(=O)[C@H]1CC[C@H]([C@H]2C[C@@H](NC(=O)[C@@]3(C)COc4cc5c(cc43)OC(F)(F)O5)c3ccc(OC(F)F)cc3O2)CC1 [Example 156]
RESULT_TYPE: EC50
OBS_VALUE: 90 nM

Prompt: Item under review: C[C@]1(C(=O)Nc2cc3cc(C4(CO)CC4)n(C[C@@H](O)CO)c3cc2F)COc2cc3c(cc21)OC(F)(F)O3 [Example 136] . Reported EC50?
Response: 910 nM

Attribution: patent US9840513B2
